tgt: Solute carrier organic anion transporter family member 1A1 (Rattus norvegicus)
Sequence (P46720 whole entry): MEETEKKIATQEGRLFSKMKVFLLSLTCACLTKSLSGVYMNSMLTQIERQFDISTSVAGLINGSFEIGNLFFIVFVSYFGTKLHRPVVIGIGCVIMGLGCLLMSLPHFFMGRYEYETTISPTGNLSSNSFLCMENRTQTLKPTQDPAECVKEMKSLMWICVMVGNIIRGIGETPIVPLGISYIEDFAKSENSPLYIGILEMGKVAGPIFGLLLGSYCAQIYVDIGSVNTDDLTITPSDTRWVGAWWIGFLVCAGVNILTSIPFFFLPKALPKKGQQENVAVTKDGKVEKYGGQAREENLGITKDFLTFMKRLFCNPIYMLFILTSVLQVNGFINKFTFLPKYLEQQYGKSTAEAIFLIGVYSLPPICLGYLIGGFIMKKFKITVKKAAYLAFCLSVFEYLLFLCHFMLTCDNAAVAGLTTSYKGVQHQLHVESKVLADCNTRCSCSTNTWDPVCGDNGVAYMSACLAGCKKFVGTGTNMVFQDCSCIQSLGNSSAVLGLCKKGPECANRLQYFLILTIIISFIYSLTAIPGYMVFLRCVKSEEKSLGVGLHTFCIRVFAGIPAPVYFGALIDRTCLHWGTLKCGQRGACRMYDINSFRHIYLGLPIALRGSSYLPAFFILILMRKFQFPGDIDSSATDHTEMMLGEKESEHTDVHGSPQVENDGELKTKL
method notes: TP_TRANSPORTER: uptake in Oatp1-expressing HeLa cells
Type: functional, cell-based
assay setup: human
measurement kind: Activity

>>> result("C[C@]12CC[C@@H]3c4ccc(OS(=O)(=O)O)cc4CC[C@H]3[C@@H]1CCC2=O [ESTRONE SULFURIC ACID]")
"substrate [+]"
>>> result("Cc1nccc2c1[nH]c1cc(O)ccc12.O=S(=O)(O)O [HARMOL SULFATE]")
"is not a substrate [-]"
>>> result("N[C@@H](CCC(=O)N[C@@H](CSc1c(Br)c(Br)c2c(c1Br)C(=O)OC2(c1ccc(O)c(S(=O)(=O)O)c1)c1ccc(O)c(S(=O)(=O)O)c1)C(=O)NCC(=O)O)C(=O)O")
"substrate [+]"
>>> result("C[C@H](N[C@@H](CCc1ccccc1)C(=O)O)C(=O)N1CCC[C@H]1C(=O)O [ENALAPRILAT ANHYDROUS]")
"is not a substrate [-]"
